Target: ALKR (Aplysia leucokinin-like peptide receptor) (Aplysia californica)
Sequence (A0A977Q7Q2 1-429): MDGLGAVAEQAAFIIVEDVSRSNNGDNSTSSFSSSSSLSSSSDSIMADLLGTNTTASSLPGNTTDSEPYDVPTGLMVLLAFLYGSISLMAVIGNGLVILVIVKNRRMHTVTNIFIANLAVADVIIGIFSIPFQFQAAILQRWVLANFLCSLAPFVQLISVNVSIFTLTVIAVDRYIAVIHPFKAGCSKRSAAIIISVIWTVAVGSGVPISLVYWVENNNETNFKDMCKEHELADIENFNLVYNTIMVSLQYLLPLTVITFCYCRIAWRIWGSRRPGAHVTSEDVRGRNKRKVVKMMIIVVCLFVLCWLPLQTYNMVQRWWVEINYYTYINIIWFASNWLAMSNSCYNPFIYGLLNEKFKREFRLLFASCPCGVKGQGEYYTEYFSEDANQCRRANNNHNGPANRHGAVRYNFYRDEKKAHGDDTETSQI
Test: IP1 accumulation assay, CHO-K1 cells transfected with ALKR
Type: cell-based
Conditions: log scale; CHO-K1 transiently transfected with ALKR, no promiscuous Gαq; IP1 detection kit (Cisbio); mean ± SEM; ALK1 n = 13, ALK2 n = 4, others n = 3; inactive: greater than highest concentration tested; read-out: log [EC50] on ALKR (converted)
Where no end group is shown, it is not given here.
property-name: EC50 (nM)
Answers are plain numbers, in nM.

Some substances with recorded EC50:
1. SEKQPAFHAWS-NH2 [ALK6] : 31.6
2. LAAFHAWS-NH2 [ALK12] : 295
3. PAFSAWS-NH2 [ALK3] : 11.7

Now, please, on to the next substance.
Req: What value of EC50 has been reported for the following substance? AGFAPWA-NH2 [ALK4]
Resp: 19.5

Source: paper PMC9562341
